pIC50 values for PIK3CA (human) (UniProt P42336) compiled from several publications are listed below.
pIC50: −log10 of the molar value.

Could you share what pIC50 was measured for `N#C/C(=C\C1CC1)C(=O)Nc1cccc(-c2csc3c(=O)cc(N4CCOCC4)oc23)c1` , tested on PIK3CA (human) (UniProt P42336)? > 6.00

I'm curious: which pIC50 was measured for `CN1CCC(NC(=O)c2cnc3ccc(-c4ccc5oc(N)nc5c4)cn23)CC1` tested on PIK3CA (human) (UniProt P42336)? > 7.00

Field: pIC50 (PIK3CA (human) (UniProt P42336)). Entry: `Cn1cc(/C=C2\Oc3ccc(NC(=O)Nc4cccnc4)cc3C2=O)c2c(N3CCC(C(=O)Nc4cccnc4)CC3)ccnc21` 5.54

Fill in the recorded pIC50 for this compound, with PIK3CA (human) (UniProt P42336) as test system: `O=c1cc(Oc2cccc(NCc3ccc(Oc4ccc(F)cc4)cc3)c2)c2ccccc2[nH]1` < 5.00

What value of pIC50 on PIK3CA (human) (UniProt P42336) does `C[C@H](Nc1ccnc2scnc12)c1cc2cccc(-c3cnn(C)c3)c2c(=O)n1-c1ccccc1` have? 5.00 to 6.00
